# Test details: Plasma pharmacokinetics in mice
# Type: in vivo
# Applied conditions: mouse, plasma, iv, 10 mg/kg, I.V.
Measurement type: clearance

Smiles representation: O=C(c1cccc(-c2cc3ccccc3[nH]2)c1)c1cc2ccccc2[nH]1
Measurement type: clearance
Result: ~66.7 mL/min/kg

###

# Test system: PPC-1
# Test details: Growth inhibition assay (SRB, 96 h)
# Assay type: cell-based
# Applied conditions: Homo sapiens, PPC-1, 96 h

Molecule: COc1cc(C(=O)c2cccc(-c3cc4ccccc4[nH]3)c2)cc(OC)c1OC [Compound 68]
Uom: µM
IC50: 0.0187

###

# Test system: TSU
# Test details: Cell viability SRB assay, 96 h
# Assay type: cell-based
# Applied conditions: Homo sapiens, TSU (TSU-Pr1)
pIC50: −log10 of the molar value.
Recorded pIC50 for the following compounds

Compound: O=S(=O)(c1ccccc1)n1c(Br)cc2ccccc21 [Compound 3, 2-bromo-1-(benzenesulfonyl)indole]
Comparative sign: =
pIC50: 4.35
--
Compound: O=S(=O)(c1ccccc1)n1c(Cc2cccc(-c3cc4ccccc4n3S(=O)(=O)c3ccccc3)c2)cc2ccccc21 [Compound 9]
Comparative sign: <
pIC50: 4.00
--
Compound: COc1cccc(C(=O)c2cccc(-c3cc4ccccc4[nH]3)c2)c1 [Compound 81]
Comparative sign: =
pIC50: 7.38
--
Compound: O=C(c1cccc(-c2cc3ccccc3n2S(=O)(=O)c2ccccc2)c1)c1cc2ccccc2n1S(=O)(=O)c1ccccc1 [Compound 12]
Comparative sign: <
pIC50: 4.00
--
Compound: O=S(=O)(c1ccccc1)n1cc(B(O)O)c2ccccc21 [Compound 129, reference compound]
Comparative sign: =
pIC50: 4.41
--
Compound: c1ccc2[nH]ccc2c1 [indole]
Comparative sign: <
pIC50: 4.00
--
Compound: COc1cc(C(=O)c2cccc(-c3cc4ccccc4[nH]3)c2)cc(OC)c1OC [Compound 68]
Comparative sign: =
pIC50: 7.74
--
Compound: O=C(c1cccc(-c2cc3ccccc3[nH]2)c1)c1cc2ccccc2[nH]1 [Compound 13]
Comparative sign: =
pIC50: 7.47
--
Compound: COc1cc(OC)cc(C(=O)c2cccc(-c3cc4ccccc4[nH]3)c2)c1 [Compound 82]
Comparative sign: =
pIC50: 7.19
--
Compound: c1ccc2c(Cc3c[nH]c4ccccc34)c[nH]c2c1 [Compound 128, di(1H-indol-3-yl)methane, reference compound]
Comparative sign: =
pIC50: 4.34
--
Compound: COc1ccc(C(=O)c2cccc(-c3cc4ccccc4[nH]3)c2)cc1OC [Compound 83]
Comparative sign: =
pIC50: 7.36
--
Compound: O=S(=O)(c1ccccc1)n1c(-c2cccc(C(O)c3cc4ccccc4n3S(=O)(=O)c3ccccc3)c2)cc2ccccc21 (stereo not shown) [Compound 8]
Comparative sign: <
pIC50: 4.00
--
Compound: O=Cc1cccc(-c2cc3ccccc3n2S(=O)(=O)c2ccccc2)c1 [Compound 5]
Comparative sign: =
pIC50: 4.94
--
Compound: COc1cc(-c2cccc(C(=O)c3cc4ccccc4n3S(=O)(=O)c3ccccc3)c2)cc(OC)c1OC [Compound 64]
Comparative sign: =
pIC50: 4.23
--
Compound: O=S(=O)(c1ccccc1)n1c(B(O)O)cc2ccccc21 [Compound 7, reference compound]
Comparative sign: =
pIC50: 4.32

###

# Test system: HEK293-MRP1
# Test details: Growth inhibition assay (96 h)
# Assay type: cell-based, human
# Applied conditions: HEK293-MRP1, MRP1 over-expressed, 96 h
pIC50: −log10 of the molar value.

Smiles representation: CCc1c2c(nc3ccc(O)cc13)-c1cc3c(c(=O)n1C2)COC(=O)[C@]3(O)CC
pIC50: 7.75

###

# Test details: Plasma pharmacokinetics in mice
# Format: in vivo
# Applied conditions: mouse, plasma, po, 10 mg/kg, P.O.

Smiles representation: O=C(c1cccc(-c2cc3ccccc3[nH]2)c1)c1cc2ccccc2[nH]1
AUC / µg·h/mL: 0.69

###

# Test details: Plasma pharmacokinetics in mice
# Format: in vivo
# Applied conditions: mouse, plasma, iv, 10 mg/kg, I.V.

Smiles representation: O=C(c1cccc(-c2cc3ccccc3[nH]2)c1)c1cc2ccccc2[nH]1
Uom: ng·h/mL
AUC: 2410

###

# Test details: Plasma pharmacokinetics in mice
# Assay type: in vivo
# Applied conditions: mouse, plasma, sc, 10 mg/kg, subcutaneous (S.C.), read-out: absolute bioavailability
Measurement type: bioavailability (%)

Smiles representation: O=C(c1cccc(-c2cc3ccccc3[nH]2)c1)c1cc2ccccc2[nH]1
Uom: %
Quantitative readout: 73

###

# Test details: Plasma pharmacokinetics in mice
# Type: in vivo
# Applied conditions: mouse, plasma, po, 10 mg/kg, P.O.
Measurement type: Cmax

Smiles representation: O=C(c1cccc(-c2cc3ccccc3[nH]2)c1)c1cc2ccccc2[nH]1
Measurement type: Cmax
Result: 120 ng/mL

###

# Tested on: PPC-1
# Test details: Cell viability SRB assay, 96 h
# Type: cell-based
# Applied conditions: Homo sapiens, PPC-1, 96 h

Compound: O=C(c1ccc(F)cc1)c1cccc(-c2cc3ccccc3n2S(=O)(=O)c2ccccc2)c1
IC50 [nM]: 550
//
Compound: COc1cccc(C(=O)c2cccc(-c3cc4ccccc4[nH]3)c2)c1
IC50 [nM]: 43
//
Compound: OC(c1cccc(-c2cc3ccccc3[nH]2)c1)c1cc2ccccc2[nH]1 (stereo not drawn)
IC50 [nM]: 3800

###

Compound: COc1ccc2cc(C(=O)c3cc(OC)c(OC)c(OC)c3)n(S(=O)(=O)c3ccccc3)c2c1 [Compound 107]
melting point: 156 to 158 °C
--
Compound: COc1cc(C(=O)c2cc3ccc(Cl)cc3[nH]2)cc(OC)c1OC [Compound 112]
melting point: 207 to 209 °C
--
Compound: COc1cc(C(O)(c2nc3ccccc3s2)c2nc3ccccc3s2)cc(OC)c1OC [Compound 127]
melting point: 50 to 52 °C
--
Compound: O=Cc1cccc(-c2cc3ccccc3n2S(=O)(=O)c2ccccc2)c1 [Compound 5]
melting point: 126 to 138 °C
--
Compound: COc1cc(C(=O)c2cc3ccc(F)cc3n2S(=O)(=O)c2ccccc2)cc(OC)c1OC [Compound 106]
melting point: 171 to 173 °C
--
Compound: O=C(c1cccc(-c2cc3ccccc3n2S(=O)(=O)c2ccccc2)c1)c1cc2ccccc2n1S(=O)(=O)c1ccccc1 [Compound 12]
melting point: 189 to 190 °C
--
Compound: COc1cc(C(=O)c2cc3ccc(C)cc3[nH]2)cc(OC)c1OC [Compound 116]
melting point: 179 to 181 °C
--
Compound: OC(c1cccc(-c2cc3ccccc3[nH]2)c1)c1cc2ccccc2[nH]1 (stereo not shown) [Compound 11]
melting point: 82 to 85 °C
--
Compound: c1cc(Cc2cc3ccccc3[nH]2)cc(-c2cc3ccccc3[nH]2)c1 [Compound 10]
melting point: 193 to 194 °C
--
Compound: COc1cc(C(=O)c2cc3cc(F)ccc3[nH]2)cc(OC)c1OC [Compound 117]
melting point: 196 to 198 °C
--
Compound: O=S(=O)(c1ccccc1)n1c(-c2cccc(C(O)c3cc4ccccc4n3S(=O)(=O)c3ccccc3)c2)cc2ccccc21 (stereo not shown) [Compound 8]
melting point: 81 to 83 °C
--
Compound: COc1cc(C(=O)c2nc3ccccc3o2)cc(OC)c1OC [Compound 123b]
melting point: 89 to 91 °C
--
Compound: COc1cc(C(=O)c2nc3ccccc3s2)cc(OC)c1OC [Compound 123a]
melting point: 144 to 146 °C

###

# Tested on: MRP2 (over-expressed in the cells)
# Test details: Growth inhibition assay (96 h)
# Format: cell-based, human
# Applied conditions: human, HEK293 cells over-expressing MRP2 (HEK293-MRP2); HEK293-MRP2, MRP2 over-expressed, 96 h
Reported IC50 at 96 h values are given for each entry in this list.

Molecule: CC(=O)O[C@@]12CO[C@@H]1C[C@H](O)[C@@]1(C)C(=O)[C@H](O)C3=C(C)[C@@H](OC(=O)[C@H](O)[C@@H](NC(=O)OC(C)(C)C)c4ccccc4)C[C@@](O)([C@@H](OC(=O)c4ccccc4)[C@H]21)C3(C)C [Docetaxel]
Uom: nM
IC50 at 96 h: 33.1
--
Molecule: COc1cc(C(=O)c2cccc(-c3cc4ccccc4[nH]3)c2)cc(OC)c1OC [Compound 68]
Uom: nM
IC50 at 96 h: 31.5
--
Molecule: CC[C@]1(O)C[C@@H]2CN(CCc3c([nH]c4ccccc34)[C@@](C(=O)OC)(c3cc4c(cc3OC)N(C)[C@H]3[C@@](O)(C(=O)OC)[C@H](OC(C)=O)[C@]5(CC)C=CCN6CC[C@]43[C@@H]65)C2)C1 [Vinblastine]
Uom: nM
IC50 at 96 h: 18.1

###

# Test details: Plasma pharmacokinetics in mice
# Format: in vivo
# Applied conditions: mouse, plasma, sc, 10 mg/kg, S.C.
Measurement type: Cmax (ng/mL)

Smiles representation: O=C(c1cccc(-c2cc3ccccc3[nH]2)c1)c1cc2ccccc2[nH]1
Measurement type: Cmax
Quantitative readout: 310
